These data points were gathered from the C3SDB collision cross section collection.

- Test conditions: [M+H]+; instrument: TW; calibrated with polyalanine
Measure name: collision cross section (N2) (Å²)

compound="CNC[C@H](O)c1ccc(O)c(O)c1 [Epinephrine]" result_unit=Å² observed=133
compound=N[C@@H](CC(=O)O)C(=O)O result_unit=Å² observed=122
compound=Nc1ncnc2c1ncn2[C@@H]1O[C@H](COP(=O)(O)O)[C@@H](O)[C@H]1O result_unit=Å² observed=167
compound=Cc1ncc(CO)c(C(=O)O)c1O result_unit=Å² observed=130
compound=N[C@@H](Cc1c[nH]c2ccccc12)C(=O)O result_unit=Å² observed=145
compound=Nc1ccc(C(=O)O)cc1 result_unit=Å² observed=131
compound=Nc1ncnc2c1ncn2[C@@H]1O[C@@H]2COP(=O)(O)O[C@H]2[C@H]1O result_unit=Å² observed=172
compound=NCCS(=O)(=O)O result_unit=Å² observed=124
compound=NCCC[C@H](N)C(=O)O result_unit=Å² observed=121
compound=CN=C(NC)NCCC[C@H](N)C(=O)O result_unit=Å² observed=142
compound="N[C@H]1[C@@H](OP(=O)(O)O)O[C@H](CO)[C@@H](O)[C@@H]1O [Glucosamine 1-phosphate]" result_unit=Å² observed=153

###

- Test conditions: [M+Na]+; instrument: DT; single field, calibrated with ESI Low Concentration Tuning Mix (Agilent)
Measure name: collision cross section (N2) (Å²)

compound="C[C@]12CCC(=O)C=C1CC[C@@H]1[C@@H]2[C@@H](O)C[C@@]2(C)[C@H]1CC[C@]2(O)C(=O)CO [CORTISOL]" measure_name="collision cross section (N2)" observed=212.9
compound="NC(=O)c1ccc[n+]([C@@H]2O[C@H](COP(=O)(O)OP(=O)(O)OC[C@H]3O[C@@H](n4cnc5c(N)ncnc54)[C@H](OP(=O)(O)O)[C@@H]3O)[C@@H](O)[C@H]2O)c1 [NADP]" measure_name="collision cross section (N2)" observed=240.9
compound="OC[C@H]1O[C@@H](O[C@H]2[C@H](O)[C@@H](O)[C@H](O)O[C@@H]2CO)[C@H](O)[C@@H](O)[C@H]1O [LACTOSE]" measure_name="collision cross section (N2)" observed=175.3
compound="CC(=O)N[C@@H](CC(=O)O)C(=O)O [N-ACETYLASPARTATE]" measure_name="collision cross section (N2)" observed=139.3
compound="O=C(O)CNC(=O)c1ccccc1 [HIPPURATE]" measure_name="collision cross section (N2)" observed=149.6
compound="C[N+](C)(C)CCOP(=O)([O-])OP(=O)(O)OC[C@H]1O[C@@H](n2ccc(N)nc2=O)[C@H](O)[C@@H]1O [CITICOLINE]" measure_name="collision cross section (N2)" observed=207.8
compound="O=P(O)(O)OCC(O)CO (centres undefined) [GLYCEROL 3-PHOSPHATE]" measure_name="collision cross section (N2)" observed=137.1
compound="CCCCCCCC/C=C\\CCCCCCCCCCCCCC(=O)[O-] [NERVONATE]" measure_name="collision cross section (N2)" observed=204.4
compound="O=c1nc[nH]c2c1ncn2[C@@H]1O[C@H](COP(=O)(O)OP(=O)(O)O)[C@@H](O)[C@H]1O [INOSINE 5'-DIPHOSPHATE]" measure_name="collision cross section (N2)" observed=184
